Biological target: T1, EsCas13d, nuclease-dead (Eubacterium siraeum, UniProt B0MS50, R295A;H300A;R849A;H854A)
T1 sequence: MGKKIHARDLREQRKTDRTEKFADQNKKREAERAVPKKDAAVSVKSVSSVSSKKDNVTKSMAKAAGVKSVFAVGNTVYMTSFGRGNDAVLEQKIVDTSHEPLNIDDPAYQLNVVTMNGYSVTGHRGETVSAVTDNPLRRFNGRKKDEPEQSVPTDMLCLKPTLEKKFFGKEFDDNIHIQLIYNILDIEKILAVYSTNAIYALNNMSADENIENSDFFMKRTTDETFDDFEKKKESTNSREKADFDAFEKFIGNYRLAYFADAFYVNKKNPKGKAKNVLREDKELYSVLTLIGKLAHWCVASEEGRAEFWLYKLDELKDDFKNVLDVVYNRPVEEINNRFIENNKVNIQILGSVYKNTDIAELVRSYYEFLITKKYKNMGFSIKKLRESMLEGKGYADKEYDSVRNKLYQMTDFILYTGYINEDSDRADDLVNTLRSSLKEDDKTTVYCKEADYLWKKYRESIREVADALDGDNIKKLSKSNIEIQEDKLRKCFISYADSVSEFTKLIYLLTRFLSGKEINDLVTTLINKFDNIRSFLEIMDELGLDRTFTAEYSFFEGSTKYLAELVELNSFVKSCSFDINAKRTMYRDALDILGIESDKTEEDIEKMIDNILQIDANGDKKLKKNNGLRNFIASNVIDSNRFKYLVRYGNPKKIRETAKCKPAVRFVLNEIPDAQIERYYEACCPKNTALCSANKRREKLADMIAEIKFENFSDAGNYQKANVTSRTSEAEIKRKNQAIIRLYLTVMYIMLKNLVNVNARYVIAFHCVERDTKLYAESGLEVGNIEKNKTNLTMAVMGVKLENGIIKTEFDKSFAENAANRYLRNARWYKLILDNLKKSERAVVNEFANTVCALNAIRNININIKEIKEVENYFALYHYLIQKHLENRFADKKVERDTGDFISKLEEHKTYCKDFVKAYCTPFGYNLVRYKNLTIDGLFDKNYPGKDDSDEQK
Assay: crRNA (strand 1, pre-loaded); Mg2+; 40 mM Tris-HCl pH 7.5, 150 mM NaCl, 6 mM MgCl2, 1 mM DTT, 0.1% Tween-20, 0.2 mg/ml BSA; 25 C; 10 min per concentration, then washed
Settings: tags: His6-TwinStrep-SUMO cleaved; N-terminal SNAP kept (SNAP-Surface 488); label: 3' end held by stalled T7 RNA polymerase

Binder	Kd (nM)
target 2 MT 5'PFS CGG 3'PFS CAA (mixed) RNA 1: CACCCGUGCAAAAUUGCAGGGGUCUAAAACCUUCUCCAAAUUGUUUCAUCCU RNA 2: GGGAAUGGAUCCACAUCUACGAAUUCCGGAGGAUGAAACAAUUUGGAGAAGCAAAGAUCGGAAGAGCACACGU	3.4
target 1 U3C,U10A (mixed) RNA 1: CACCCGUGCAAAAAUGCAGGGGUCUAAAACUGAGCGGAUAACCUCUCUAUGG RNA 2: GGGAAUGGAUCCACAUCUACGAAUUCGUACCAUAGAGAGGUAAUCCGCCCACCGAGAUCGGAAGAGCACACGU	90
target 2 MT 5'PFS CAA 3'PFS UCC (mixed) RNA 1: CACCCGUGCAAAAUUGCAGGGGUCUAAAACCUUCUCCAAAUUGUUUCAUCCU RNA 2: GGGAAUGGAUCCACAUCUACGAAUUCCAAAGGAUGAAACAAUUUGGAGAAGUCCAGAUCGGAAGAGCACACGU	7.3
target 1 insA 3' of 13,insG 3' of 1 (mixed) RNA 1: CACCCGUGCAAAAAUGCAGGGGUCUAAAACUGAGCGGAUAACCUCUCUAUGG RNA 2: GGGAAUGGAUCCACAUCUACGAAUUCGUACCAUAGAGAGAGUUAUCCGCUCAGCCGAGAUCGGAAGAGCACACGU	3.08
